- tested.system: FRK (Homo sapiens, UniProt P42685)
- Sequence (P42685 whole entry): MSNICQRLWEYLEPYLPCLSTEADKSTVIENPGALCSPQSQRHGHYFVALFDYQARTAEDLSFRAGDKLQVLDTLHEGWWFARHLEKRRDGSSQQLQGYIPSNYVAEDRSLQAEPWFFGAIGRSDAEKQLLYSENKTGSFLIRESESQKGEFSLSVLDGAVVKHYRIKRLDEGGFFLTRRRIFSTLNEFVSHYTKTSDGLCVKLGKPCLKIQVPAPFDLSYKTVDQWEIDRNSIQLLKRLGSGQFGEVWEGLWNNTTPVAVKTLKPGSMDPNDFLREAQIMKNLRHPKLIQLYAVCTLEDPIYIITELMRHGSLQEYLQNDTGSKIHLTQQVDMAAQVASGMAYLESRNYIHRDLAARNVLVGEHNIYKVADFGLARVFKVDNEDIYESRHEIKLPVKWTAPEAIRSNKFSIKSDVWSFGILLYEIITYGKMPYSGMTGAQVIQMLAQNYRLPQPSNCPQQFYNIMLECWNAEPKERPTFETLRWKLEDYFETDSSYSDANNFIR
measured.endpoint: IC50

## Input Given CC1=C(CC(=O)/C=C/c2cccc(CO)c2)C(=O)C=C2C1=CC=C1[C@@]2(C)CC[C@@]2(C)C3C[C@](C)(C(=O)CCc4nc(C(O)C(O)O)c(C)nc4C)CC[C@]3(C)CC[C@]12C (stereo partly shown) , state its recorded IC50.
## Output > 30 µM

---

- tested.system: INSRR (Homo sapiens, UniProt P14616)
measured.endpoint: IC50

## Input Which IC50 is listed for CC1=C(CC(=O)/C=C/c2cccc(CO)c2)C(=O)C=C2C1=CC=C1[C@@]2(C)CC[C@@]2(C)C3C[C@](C)(C(=O)CCc4nc(C(O)C(O)O)c(C)nc4C)CC[C@]3(C)CC[C@]12C (stereo partly shown) [CP1] ?
## Output > 30 µM

---

- tested.system: ZAP70 (Homo sapiens, UniProt P43403)
- Sequence (P43403 1-619): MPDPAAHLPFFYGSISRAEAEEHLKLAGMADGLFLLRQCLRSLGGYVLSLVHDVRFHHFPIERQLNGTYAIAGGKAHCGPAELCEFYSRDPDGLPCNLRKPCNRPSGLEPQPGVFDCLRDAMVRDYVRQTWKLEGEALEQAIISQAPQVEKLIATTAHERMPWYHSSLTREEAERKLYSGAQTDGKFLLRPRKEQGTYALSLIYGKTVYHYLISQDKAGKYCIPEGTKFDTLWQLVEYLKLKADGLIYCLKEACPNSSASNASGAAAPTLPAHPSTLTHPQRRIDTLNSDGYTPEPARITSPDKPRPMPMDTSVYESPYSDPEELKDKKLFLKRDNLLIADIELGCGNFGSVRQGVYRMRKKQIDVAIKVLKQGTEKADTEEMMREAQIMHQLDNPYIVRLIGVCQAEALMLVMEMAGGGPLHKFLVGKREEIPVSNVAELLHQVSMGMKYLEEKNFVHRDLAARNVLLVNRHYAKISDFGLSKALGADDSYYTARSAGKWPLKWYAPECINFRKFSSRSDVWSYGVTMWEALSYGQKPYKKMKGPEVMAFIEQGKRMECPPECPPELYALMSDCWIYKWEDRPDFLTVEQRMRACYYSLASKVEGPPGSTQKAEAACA
pIC50: −log10 of the molar value.
measured.endpoint: pIC50

## Input Give the measured pIC50 of CC1=C(CC(=O)/C=C/c2cccc(CO)c2)C(=O)C=C2C1=CC=C1[C@@]2(C)CC[C@@]2(C)C3C[C@](C)(C(=O)CCc4nc(C(O)C(O)O)c(C)nc4C)CC[C@]3(C)CC[C@]12C (stereo partly shown) .
## Output < 4.52

---

- tested.system: UniProtKB P06213
- Sequence (P06213 28-1382): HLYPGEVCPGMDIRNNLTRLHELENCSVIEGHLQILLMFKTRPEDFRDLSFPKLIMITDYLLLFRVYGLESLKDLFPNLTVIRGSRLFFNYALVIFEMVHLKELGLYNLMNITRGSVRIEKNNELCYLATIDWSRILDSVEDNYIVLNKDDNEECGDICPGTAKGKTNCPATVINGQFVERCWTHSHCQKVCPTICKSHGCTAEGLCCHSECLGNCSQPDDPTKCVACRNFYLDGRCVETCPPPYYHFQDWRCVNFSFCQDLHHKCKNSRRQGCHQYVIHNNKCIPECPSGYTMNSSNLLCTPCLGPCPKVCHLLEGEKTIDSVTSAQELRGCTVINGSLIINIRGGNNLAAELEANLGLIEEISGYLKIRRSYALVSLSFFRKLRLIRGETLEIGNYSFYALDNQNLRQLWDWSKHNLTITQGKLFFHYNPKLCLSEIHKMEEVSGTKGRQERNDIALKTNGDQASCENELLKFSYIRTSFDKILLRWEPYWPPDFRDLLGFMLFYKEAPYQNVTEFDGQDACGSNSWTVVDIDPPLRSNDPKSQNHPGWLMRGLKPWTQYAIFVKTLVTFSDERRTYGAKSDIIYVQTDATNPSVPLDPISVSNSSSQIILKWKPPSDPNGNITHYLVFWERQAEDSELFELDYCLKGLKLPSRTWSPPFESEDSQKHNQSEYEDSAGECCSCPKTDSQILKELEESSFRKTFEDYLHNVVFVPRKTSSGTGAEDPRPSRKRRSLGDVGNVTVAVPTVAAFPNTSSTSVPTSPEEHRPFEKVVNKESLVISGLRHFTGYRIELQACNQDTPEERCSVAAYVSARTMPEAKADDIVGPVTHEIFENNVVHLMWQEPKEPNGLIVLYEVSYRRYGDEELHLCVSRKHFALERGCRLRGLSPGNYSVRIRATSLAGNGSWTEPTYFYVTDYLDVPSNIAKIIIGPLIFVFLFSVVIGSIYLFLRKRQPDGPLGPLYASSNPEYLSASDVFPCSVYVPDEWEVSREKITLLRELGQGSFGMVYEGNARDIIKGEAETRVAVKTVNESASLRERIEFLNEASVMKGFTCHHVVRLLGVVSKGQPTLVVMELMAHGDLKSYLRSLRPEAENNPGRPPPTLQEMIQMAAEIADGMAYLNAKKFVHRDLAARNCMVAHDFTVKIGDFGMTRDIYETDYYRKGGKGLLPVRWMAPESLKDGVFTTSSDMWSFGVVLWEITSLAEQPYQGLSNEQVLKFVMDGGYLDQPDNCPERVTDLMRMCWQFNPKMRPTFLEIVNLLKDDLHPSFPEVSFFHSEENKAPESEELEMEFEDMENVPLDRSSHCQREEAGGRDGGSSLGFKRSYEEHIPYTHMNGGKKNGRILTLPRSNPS
measured.endpoint: IC50

## Input Bench note: what IC50 did CC1=C(CC(=O)/C=C/c2cccc(CO)c2)C(=O)C=C2C1=CC=C1[C@@]2(C)CC[C@@]2(C)C3C[C@](C)(C(=O)CCc4nc(C(O)C(O)O)c(C)nc4C)CC[C@]3(C)CC[C@]12C (stereo partly shown) show?
## Output > 30 µM

---

- tested.system: PRDX1 (Homo sapiens, UniProt Q06830)
- Sequence (Q06830 whole entry): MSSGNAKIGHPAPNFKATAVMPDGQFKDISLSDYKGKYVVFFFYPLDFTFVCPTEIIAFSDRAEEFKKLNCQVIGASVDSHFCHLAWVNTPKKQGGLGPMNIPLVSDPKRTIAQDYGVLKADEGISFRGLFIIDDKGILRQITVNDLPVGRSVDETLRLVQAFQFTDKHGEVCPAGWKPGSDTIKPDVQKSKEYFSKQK
- assay.explanation: MST assay
- Assay type: binding
measured.endpoint: Kd (nM)
Numbers only here, please. The scale is nM.

## Input I would be grateful if you could share the reported Kd for `CC1=C(O)C(=O)C=C2C1=CC=C1[C@@]2(C)CC[C@@]2(C)[C@@H]3C[C@](C)(C(=O)O)CC[C@]3(C)CC[C@]12C` .
## Output 320

---

- tested.system: EPHA8 (Homo sapiens, UniProt P29322)
- Sequence (P29322 28-1005): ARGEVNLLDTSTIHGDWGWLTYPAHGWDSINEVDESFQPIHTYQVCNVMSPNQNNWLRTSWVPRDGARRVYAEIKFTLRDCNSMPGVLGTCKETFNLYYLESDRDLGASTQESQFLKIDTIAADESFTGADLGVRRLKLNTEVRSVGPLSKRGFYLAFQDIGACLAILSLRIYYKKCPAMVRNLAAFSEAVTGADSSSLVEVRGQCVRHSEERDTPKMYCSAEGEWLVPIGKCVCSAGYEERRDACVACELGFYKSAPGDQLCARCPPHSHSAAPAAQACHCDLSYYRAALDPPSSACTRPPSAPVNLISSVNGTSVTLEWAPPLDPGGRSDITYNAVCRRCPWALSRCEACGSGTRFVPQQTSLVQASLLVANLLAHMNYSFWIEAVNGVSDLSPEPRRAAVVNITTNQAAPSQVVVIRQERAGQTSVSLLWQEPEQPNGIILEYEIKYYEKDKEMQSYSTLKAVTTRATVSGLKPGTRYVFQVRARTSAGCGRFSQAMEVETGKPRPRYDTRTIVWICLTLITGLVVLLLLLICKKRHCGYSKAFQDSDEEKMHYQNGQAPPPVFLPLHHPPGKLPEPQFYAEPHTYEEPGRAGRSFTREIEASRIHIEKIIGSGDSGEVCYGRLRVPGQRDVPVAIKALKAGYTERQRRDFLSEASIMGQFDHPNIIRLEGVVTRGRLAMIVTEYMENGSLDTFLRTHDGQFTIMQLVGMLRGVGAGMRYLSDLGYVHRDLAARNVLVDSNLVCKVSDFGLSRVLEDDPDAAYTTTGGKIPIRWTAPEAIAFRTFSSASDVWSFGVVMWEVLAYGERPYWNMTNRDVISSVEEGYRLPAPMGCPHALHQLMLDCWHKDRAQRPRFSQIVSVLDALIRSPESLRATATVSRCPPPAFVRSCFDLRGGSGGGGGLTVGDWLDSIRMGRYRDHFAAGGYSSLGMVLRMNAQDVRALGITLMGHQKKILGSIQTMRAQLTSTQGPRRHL
measured.endpoint: IC50

## Input Item CC1=C(CC(=O)/C=C/c2cccc(CO)c2)C(=O)C=C2C1=CC=C1[C@@]2(C)CC[C@@]2(C)C3C[C@](C)(C(=O)CCc4nc(C(O)C(O)O)c(C)nc4C)CC[C@]3(C)CC[C@]12C (stereo partly shown) has what recorded IC50?
## Output > 30 µM

---

- tested.system: KIT (Homo sapiens, UniProt P10721)
- Sequence (P10721 26-976): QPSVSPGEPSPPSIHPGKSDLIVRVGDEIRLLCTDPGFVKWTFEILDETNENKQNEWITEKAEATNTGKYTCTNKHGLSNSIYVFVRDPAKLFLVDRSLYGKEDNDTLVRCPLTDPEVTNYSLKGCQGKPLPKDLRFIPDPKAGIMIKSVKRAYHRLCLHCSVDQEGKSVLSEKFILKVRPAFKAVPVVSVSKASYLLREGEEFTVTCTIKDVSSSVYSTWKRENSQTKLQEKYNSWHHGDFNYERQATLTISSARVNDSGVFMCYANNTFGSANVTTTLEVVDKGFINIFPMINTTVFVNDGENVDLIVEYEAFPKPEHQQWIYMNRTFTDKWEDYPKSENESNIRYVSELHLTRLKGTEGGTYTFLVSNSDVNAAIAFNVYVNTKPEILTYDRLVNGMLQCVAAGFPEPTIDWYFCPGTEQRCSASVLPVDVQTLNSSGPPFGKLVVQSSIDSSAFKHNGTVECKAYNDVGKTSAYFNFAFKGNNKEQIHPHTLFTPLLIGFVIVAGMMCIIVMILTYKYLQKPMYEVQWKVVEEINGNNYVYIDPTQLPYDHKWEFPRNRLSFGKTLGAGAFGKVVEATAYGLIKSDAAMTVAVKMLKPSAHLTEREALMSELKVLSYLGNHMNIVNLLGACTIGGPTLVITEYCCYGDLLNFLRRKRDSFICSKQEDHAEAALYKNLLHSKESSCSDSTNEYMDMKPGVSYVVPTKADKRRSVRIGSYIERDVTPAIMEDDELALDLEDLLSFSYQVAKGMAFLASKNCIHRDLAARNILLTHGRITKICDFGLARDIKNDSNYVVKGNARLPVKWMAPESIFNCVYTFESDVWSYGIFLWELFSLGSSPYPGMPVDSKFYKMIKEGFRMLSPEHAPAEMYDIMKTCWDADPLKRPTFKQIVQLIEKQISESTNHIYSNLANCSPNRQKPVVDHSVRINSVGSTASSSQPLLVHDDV
pIC50: −log10 of the molar value.
measured.endpoint: pIC50

## Input Tell me the measured pIC50 of CC1=C(CC(=O)/C=C/c2cccc(CO)c2)C(=O)C=C2C1=CC=C1[C@@]2(C)CC[C@@]2(C)C3C[C@](C)(C(=O)CCc4nc(C(O)C(O)O)c(C)nc4C)CC[C@]3(C)CC[C@]12C (stereo partly shown) [CP1] , please.
## Output < 4.52

---

- tested.system: PRDX1 (Homo sapiens, UniProt Q06830)
- assay.explanation: PRDX1 inhibition assay
- Assay type: biochemical
- experimental.setup: mean ± SD, n = 3; read-out: PRDX1 (IC50)
Rule: IC50 below 0.3 nM gives criterion met, anything at or above gives criterion not met.

## Input State whether 0.3 nM exceeds IC50 recorded for C=C(/C=C(C)\C=C\C(=O)CC1=CC2=CC=C3C(CC[C@@]4(C)C5C[C@](C)(C(=O)NCc6cccc(CC(O)O)c6)CC[C@]5(C)CC[C@]34C)C2=CC1=O)CO (some centres unmarked) .
## Output criterion not met

## Input Now consider Cc1ncc(CNC(=O)[C@]2(C)CC[C@]3(C)CC[C@]4(C)C5=CC=C6C=C(CC(=O)/C=C/c7cccc(CO)c7)C(=O)C=C6C5CC[C@@]4(C)C3C2)nc1C(C)C(O)O (some centres unmarked) .
## Output criterion met

## Input Same read-out for C[C@@]1(C(=O)NCc2cccc(CC(O)O)c2)CC[C@]2(C)CC[C@]3(C)C4=CC=C5C=C(CC(=O)/C=C/c6cccc(CO)c6)C(=O)C=C5C4CC[C@@]3(C)C2C1 (some centres unmarked) ?
## Output criterion not met

## Input And the next one, CC1=C(CC(=O)/C=C/c2cccc(CO)c2)C(=O)C=C2C1=CC=C1[C@@]2(C)CC[C@@]2(C)C3C[C@](C)(C(=O)CCc4nc(C(O)C(O)O)c(C)nc4C)CC[C@]3(C)CC[C@]12C (some centres unmarked) ?
## Output criterion met

## Input Next molecule: CC1=C(CC(=O)/C=C/C2=CC(CO)=CC2)C(=O)C=C2C1=CC=C1[C@@]2(C)CC[C@@]2(C)C3C[C@](C)(C(=O)NCc4cccc(C(O)C(O)O)c4)CC[C@]3(C)CC[C@]12C (some centres unmarked)
## Output criterion met

---

- tested.system: UniProt:P29317
- Sequence (P29317 24-976): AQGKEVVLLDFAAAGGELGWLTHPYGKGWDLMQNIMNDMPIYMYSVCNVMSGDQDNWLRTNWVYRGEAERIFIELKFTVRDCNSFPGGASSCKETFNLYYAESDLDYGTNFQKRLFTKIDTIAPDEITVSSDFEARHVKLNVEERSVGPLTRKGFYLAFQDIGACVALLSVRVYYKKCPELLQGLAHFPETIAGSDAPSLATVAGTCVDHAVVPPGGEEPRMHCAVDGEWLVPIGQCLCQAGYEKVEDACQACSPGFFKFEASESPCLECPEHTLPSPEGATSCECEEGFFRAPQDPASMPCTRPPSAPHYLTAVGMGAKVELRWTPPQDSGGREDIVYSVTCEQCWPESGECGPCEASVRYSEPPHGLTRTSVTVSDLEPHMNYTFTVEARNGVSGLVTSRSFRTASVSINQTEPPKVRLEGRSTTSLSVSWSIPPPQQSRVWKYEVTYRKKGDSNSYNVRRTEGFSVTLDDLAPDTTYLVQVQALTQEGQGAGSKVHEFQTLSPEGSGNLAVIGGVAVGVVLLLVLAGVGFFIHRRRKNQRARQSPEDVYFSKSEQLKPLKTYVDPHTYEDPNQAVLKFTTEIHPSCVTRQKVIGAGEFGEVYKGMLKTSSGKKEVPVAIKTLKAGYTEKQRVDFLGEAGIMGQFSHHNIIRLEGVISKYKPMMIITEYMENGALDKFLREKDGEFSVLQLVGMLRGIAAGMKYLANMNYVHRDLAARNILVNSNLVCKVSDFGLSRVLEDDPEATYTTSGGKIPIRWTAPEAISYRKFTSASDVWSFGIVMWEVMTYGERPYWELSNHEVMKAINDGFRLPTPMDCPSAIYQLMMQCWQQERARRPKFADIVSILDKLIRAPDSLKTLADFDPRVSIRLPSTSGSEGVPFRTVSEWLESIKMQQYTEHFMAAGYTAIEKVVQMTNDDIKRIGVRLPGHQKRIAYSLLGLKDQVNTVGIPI
pIC50: −log10 of the molar value.
measured.endpoint: pIC50

## Input Form entry - test system: UniProt:P29317; read-out: pIC50; compound: CC1=C(CC(=O)/C=C/c2cccc(CO)c2)C(=O)C=C2C1=CC=C1[C@@]2(C)CC[C@@]2(C)C3C[C@](C)(C(=O)CCc4nc(C(O)C(O)O)c(C)nc4C)CC[C@]3(C)CC[C@]12C (stereo partly shown)
## Output < 4.52

---

- tested.system: PDGFRB (Homo sapiens, UniProt P09619)
- Sequence (P09619 33-1106): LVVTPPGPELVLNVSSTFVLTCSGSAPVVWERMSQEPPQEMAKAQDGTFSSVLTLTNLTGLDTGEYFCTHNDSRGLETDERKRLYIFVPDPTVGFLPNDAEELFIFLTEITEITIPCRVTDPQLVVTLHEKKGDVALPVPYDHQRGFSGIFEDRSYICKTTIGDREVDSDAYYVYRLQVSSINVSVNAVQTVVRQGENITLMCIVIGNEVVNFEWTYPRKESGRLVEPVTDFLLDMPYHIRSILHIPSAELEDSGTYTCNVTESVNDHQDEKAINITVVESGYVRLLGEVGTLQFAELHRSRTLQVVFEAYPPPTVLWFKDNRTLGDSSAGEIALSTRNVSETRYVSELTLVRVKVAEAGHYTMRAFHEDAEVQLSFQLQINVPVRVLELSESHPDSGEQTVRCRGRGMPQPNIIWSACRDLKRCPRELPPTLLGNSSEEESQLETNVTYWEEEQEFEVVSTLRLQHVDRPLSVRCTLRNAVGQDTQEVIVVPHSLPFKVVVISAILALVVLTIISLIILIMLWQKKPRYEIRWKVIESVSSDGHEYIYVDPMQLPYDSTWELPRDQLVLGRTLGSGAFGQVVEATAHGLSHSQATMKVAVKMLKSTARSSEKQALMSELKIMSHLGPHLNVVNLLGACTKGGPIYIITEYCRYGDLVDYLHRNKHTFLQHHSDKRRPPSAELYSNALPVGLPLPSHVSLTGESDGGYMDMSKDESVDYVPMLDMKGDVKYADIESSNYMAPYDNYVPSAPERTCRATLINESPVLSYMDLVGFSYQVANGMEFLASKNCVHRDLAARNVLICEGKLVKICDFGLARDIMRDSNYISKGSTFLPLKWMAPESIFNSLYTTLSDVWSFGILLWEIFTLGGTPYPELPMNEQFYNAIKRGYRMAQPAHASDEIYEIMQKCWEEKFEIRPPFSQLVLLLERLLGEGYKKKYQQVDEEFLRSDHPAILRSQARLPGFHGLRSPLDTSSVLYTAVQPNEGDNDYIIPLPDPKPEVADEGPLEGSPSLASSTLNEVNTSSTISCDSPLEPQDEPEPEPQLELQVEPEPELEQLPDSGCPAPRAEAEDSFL
pIC50: −log10 of the molar value.
measured.endpoint: pIC50

## Input Given the compound CC1=C(CC(=O)/C=C/c2cccc(CO)c2)C(=O)C=C2C1=CC=C1[C@@]2(C)CC[C@@]2(C)C3C[C@](C)(C(=O)CCc4nc(C(O)C(O)O)c(C)nc4C)CC[C@]3(C)CC[C@]12C (stereo partly shown) , what is its reported pIC50?
## Output < 4.52
